Settings: Liquid
Each entry below carries its recorded Critical density.

| molecule | unit.spec | Critical density |
| --- | --- | --- |
| FCC(F)(F)F | kg/m3 | 508 |
| FC(F)C(F)C(F)(F)F (stereo not given) | kg/m3 | 562 |
| FC(C(F)(F)F)C(F)(F)F | kg/m3 | 598 |
| COC(F)(F)F | kg/m3 | 459 |
| FC(F)C(F)(F)F | kg/m3 | 560 |

* * *

Each entry below carries its recorded Critical temperature.
Settings: Liquid; Visual observation in an unstirred cell
assay.readout: Critical temperature (K)

| molecule | unit.spec | measured.number |
| --- | --- | --- |
| FC(C(F)(F)F)C(F)(F)F [1,1,1,2,3,3,3-heptafluoropropane] | K | 375 |
| FC(F)C(F)(F)F [pentafluoroethane] | K | 339.2 |
| COC(F)(F)F [trifluoromethoxymethane] | K | 377.92 |
| FCC(F)(F)F [1,1,1,2-tetrafluoroethane] | K | 374.13 |
| FC(F)C(F)C(F)(F)F (stereo not given) [1,1,1,2,3,3-hexafluoropropane] | K | 412.41 |

* * *

Details: Liquid; Direct measurement
Each entry below carries its recorded Critical pressure.

| molecule | Critical pressure [kPa] |
| --- | --- |
| COC(F)(F)F | 3640 |
| FC(F)C(F)(F)F | 3617 |
| FC(F)C(F)C(F)(F)F (stereo not given) | 3416 |
| FCC(F)(F)F | 4053 |
| FC(C(F)(F)F)C(F)(F)F | 2930 |
